# Test system: A549 lung carcinoma cell line bearing KRas^G12S oncogenic mutation
# ASSAY REMARKS: Cell proliferation inhibition (MTS), A549
# Assay type: cell-based
# DETAILS: Homo sapiens, 72 h incubation, MTS, compounds 1-53, median from experimental results
pIC50: −log10 of the molar value.
QUANTITY: pIC50

> print(dat)
                                   compound                              study.target  observed.measurement
1  Cc1ccc(C2c3cc(OCCc4cccnc4)c(C)cc3CCN2C(=O)NCc2cocn2)c(C)c1 (stereo not shown)  A549 lung carcinoma cell line bearing KRas^G12S oncogenic mutation                  6.31

P. COc1cc2c(cc1OCCc1cccnc1)C(c1ccc(C)cc1C)N(C(=O)NCc1cocn1)CC2 (stereo not shown)
Q. Cc1ccc(C2c3cc(OCCc4cccnc4)c(CO)cc3CCN2C(=O)NCc2cocn2)c(C)c1 (stereo not shown)
Could you check which of P and Q has a smaller value for pIC50? Respond with the label that goes with your answer.
Q
(Q: 5.90, P: 6.26)

====

# Tested on: PANC-1 epithelioid carcinoma of the pancreas cell line bearing KRas^G12D oncogenic mutation
# ASSAY REMARKS: Cell proliferation inhibition (MTS), PANC-1
# Type: cell-based
# DETAILS: Homo sapiens, 72 h incubation, MTS, compounds 1-53, median from experimental results
pIC50: −log10 of the molar value.
QUANTITY: pIC50

Recorded results for 2 compounds are shown here.
> print(dat)
                                   compound  observed.measurement
1  CCC(=O)CCN1CCc2cc(OC)c(OCCc3cccc(O)c3)cc2C1c1ccc(OC)c(OC)c1Cl (stereo not shown)                  4.95
2  COc1cc2c(cc1OCCc1cccc(O)c1)C(c1ccc(C)cc1C)N(C(=O)NCc1cocn1)CC2 (stereo not shown)                  5.80

1. Cc1ccc(C2c3cc(OCCc4cccnc4)c(CO)cc3CCN2C(=O)NCc2cocn2)c(C)c1 (stereo not shown)
2. CCNC(=O)N1CCc2cc(OC)c(OCCc3cccc(N)c3)cc2C1c1ccc(C)cc1C (stereo not shown)
Identify the entry with the larger pIC50. Options: 1 and 2 Respond with the label that goes with your answer.
2
(2: 6.30, 1: 5.68)

====

# Test system: PANC-1 epithelioid carcinoma of the pancreas cell line bearing KRas^G12D oncogenic mutation
# ASSAY REMARKS: Cell proliferation inhibition (MTS), PANC-1
# Assay type: cell-based
# DETAILS: Homo sapiens, compounds 54-63, based on estimations and/or preliminary experimental results
pIC50: −log10 of the molar value.
QUANTITY: pIC50

> print(dat)
                                   compound  quantity  observed.measurement
1  COc1cc2c(cc1OCCc1cccnc1OC)C(c1ccc(C)cc1C)N(C(=O)NCc1cocn1)CC2 (stereo not drawn)     pIC50                  6.30

1. COc1cc2c(cc1OCCc1cnc(C)cn1)C(c1ccc(C)cc1C)N(C(=O)NCc1cocn1)CC2 (stereo not drawn)
2. COc1cc2c(cc1OCCc1nccnc1C)C(c1ccc(C)cc1C)N(C(=O)NCc1cocn1)CC2 (stereo not drawn)
Could you check which of 1 and 2 has a smaller value for pIC50? Respond with the label that goes with your answer.
2
